assay.comment: NCI Yeast Anticancer Drug Screen. Data for the rad50 strain (AID 155);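 further: 0% = growth of vehicle-only cultures of the same strain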
cond: S. cerevisiae rad50 strain growth inhibition, hits give high values; at 50.0 µM unless noted
Compounds without any hit were thinned out: in the full panel of roughly 79,000, 15% have a hit.
attribute.measured: growth inhibition (%)

molecule=O=c1nc2sccn2c2ncccc12 observed_measurement=-18.5
molecule="C=C1C(=O)C23CC1CCC2C12CO[C@H](O)[C@H]1C(C)(C)[C@H](OC(C)=O)C[C@H]2OC3=O (stereo partly drawn)" observed_measurement=4.75
molecule="COc1cc(CC2(C#N)c3ccccc3C=CN2C(=O)c2ccccc2)c(Oc2cc(CC3(C#N)c4ccccc4C=CN3C(=O)c3ccccc3)ccc2OC)cc1OC (stereo not drawn)" observed_measurement=4.65
molecule=C=CCN(CC=C)C(=O)Nc1cccc(C)c1 observed_measurement=-27.2
molecule="COc1cc(OC)c2c(c1)OC(c1cccnc1)C(c1ccccc1)C2=O (stereo not drawn)" observed_measurement=-5.2
molecule=COCCOC(=O)OCCOC observed_measurement=-1.5
molecule=Nc1nc(Cl)cc(NCCCCCCCCNc2cc(Cl)nc(N)n2)n1 observed_measurement=-2.3
molecule=O=C(c1ccccc1)N1c2ccc([N+](=O)[O-])cc2Sc2cc([N+](=O)[O-])ccc21 observed_measurement=16.7
molecule=COc1ccc(-c2oc(=O)cc(-c3ccccc3)c2-c2ccccc2)cc1 observed_measurement=22.6
molecule="C=C1[C@@H](O)C[C@@H]2C[C@@]3(C)[C@H](C(C)(C)C[C@@H]3O)C12O (stereo partly drawn)" observed_measurement=-4.25
molecule=CCOC(=O)c1nnsc1N/N=C\c1ccc([N+](=O)[O-])cc1 observed_measurement=-5.05
molecule="Cc1nnc(N/N=C(/C(=O)C(C#N)c2ccc(Cl)cc2)C(C#N)c2ccc(Cl)cc2)n1N (stereo not drawn)" observed_measurement=-9.3
molecule=O=Cc1c[nH]c2ccc(F)cc12 observed_measurement=9.85
molecule="OCC1OC(n2cnc3c2NC=NC[C@H]3O)C(O)C1O (stereo partly drawn)" observed_measurement=32.4
molecule=CCN1CCN(c2nc3ccccc3c3c2CCOc2ccccc2-3)CC1 observed_measurement=-12.4
molecule=CCCCOC(=O)NC(=O)c1cn(CCCOC(=O)NCCCCCCNC(=O)OCCCn2cc(C(=O)NC(=O)OCCCC)c(=O)[nH]c2=O)c(=O)[nH]c1=O observed_measurement=-1.1
molecule="CC1CC(C)OC(C(Br)CBr)O1 (stereo not drawn)" observed_measurement=5.05
molecule=O=c1[nH]cnc2nc(N3CCOCC3)sc12 observed_measurement=-15.7

----------
assay.comment: NCI Yeast Anticancer Drug Screen. Data for the mec2-1 strain (AID 157)
cond: S. cerevisiae mec2-1 strain, hits give high values; at 50.0 µM unless noted
Compounds without any hit were thinned out: in the full panel of roughly 79,000, 15% have a hit.
# if value of growth inhibition reaches -10%, tag true; if it stays below, tag false

compound="NC(N)=N/N=C(/CC1OC(=O)c2ccccc21)c1ccc2ccccc2c1 (stereo not given)" assigned_category=false
compound=CCc1cc(C)c(C)cc1O assigned_category=false
compound=CN(C)c1ccc(/C=C/C=C2\C=Cc3ccccc32)cc1 assigned_category=false
compound=COc1cc(N(Cc2ccc3nc(OC)c(OC)nc3c2)Cc2ccc3nc(OC)c(OC)nc3c2)cc(OC)c1OC assigned_category=false
compound="CC1OCC(O)C(C(O)C(=O)CN(Cc2ccccc2)Cc2ccccc2)O1 (stereo not given)" assigned_category=true

----------
assay.comment: NCI Yeast Anticancer Drug Screen. Data for the mlh1 rad18 strain (AID 175)
cond: S. cerevisiae mlh1 rad18 strain growth inhibition; at 50.0 µM unless noted
About 79,000 compounds went through this panel and 15% of them were active in at least one assay; those are over-represented in the sample as a whole. Active and inactive are the calls of the source. Cut-off read from the data, not from the text of the source: active = growth inhibition above about 70%; inactive = the rest.
Possible outcomes: label 1 = active, label 0 = inactive

compound="C[N+](C)(C)CC1CCC/C1=N\\OC(=O)c1ccccc1 (stereo unspecified)" assigned_category="label 0"
compound=COC(=O)c1ccccc1NS(=O)(=O)c1ccc(Cl)cc1 assigned_category="label 1"
compound=NNC(=O)CC(=O)NN assigned_category="label 0"
compound="NC(=O)C(N)CC12CC3CC(CC(C3)C1)C2 (stereo unspecified)" assigned_category="label 0"
compound=CNCc1cc(Br)cc(Br)c1O assigned_category="label 0"
compound="COc1ccc2nc3cccc([N+](=O)[O-])c3c(NC(C)CN(C)C)c2c1 (stereo unspecified)" assigned_category="label 0"
compound="CC1OC(O[C@H]2CC[C@]3(C)[C@H]4CC=C5[C@@H]6[C@@H](C)[C@H](C)CC[C@]6(C(=O)OC6OC(CO)C(O)C(O)C6O)CC[C@@]5(C(=O)O)[C@]4(C)CC[C@H]3C2(C)C)C(O)C(O)C1O (stereo partly specified)" assigned_category="label 0"
compound="CC1=NCC23CC(=O)C4C(CCC5(C)CC(O)CCC45C)C2CCC13 (stereo unspecified)" assigned_category="label 0"
compound="C=C1C(=O)OC2CC(C)C(/C=C/C(C)=O)=CCC12 (stereo unspecified)" assigned_category="label 0"
compound=Cc1ccc(Cl)cc1NC(=O)Nc1ccccc1Cl assigned_category="label 0"
compound=CN(C(=O)CCC1OCCO1)c1cc(N)ccc1OCc1ccccc1 assigned_category="label 0"
compound=CCO[C@@H]1OC(=O)[C@H]2C(c3ccccc3Cl)=NO[C@@H]12 assigned_category="label 0"
compound="CCCCCCCCN(CCCCCCCC)CC(O)c1ccnc2c(Cl)cc(Cl)cc12 (stereo unspecified)" assigned_category="label 0"
compound=O=Cc1ccc(OC(=O)Nc2ccc([N+](=O)[O-])cc2)cc1 assigned_category="label 0"
compound="COC(=O)NC1C(OC(C)=O)C(OC(C)=O)C(COC(C)=O)OC1n1ccc(NC(C)=O)nc1=O (stereo unspecified)" assigned_category="label 0"
compound="Cc1ccc(N2CCC(O)C2)cc1 (stereo unspecified)" assigned_category="label 0"
compound="COC(=O)C(C)(N=Cc1ccccc1)c1ccccc1 (stereo unspecified)" assigned_category="label 0"
compound=CC1=C(c2ccccc2)OC(c2ccccc2)=C[P+]1(c1ccccc1)c1ccccc1 assigned_category="label 1"
compound=Cc1[nH]c2c(C)ccc(C)c2c(=O)c1Br assigned_category="label 0"
compound="CCOc1ccc(C(C)c2cc3c(cc2OCC(=O)O)OCO3)cc1 (stereo unspecified)" assigned_category="label 0"
compound="CCCCC1(CC)COC(C)(CC)OC1 (stereo unspecified)" assigned_category="label 0"
compound="C=CCC(Cc1ccccc1)C(N)=O (stereo unspecified)" assigned_category="label 0"
compound="COc1cccc(C2SC(N)=Nc3c2c(C)nn3C(=O)c2ccccc2O)c1 (stereo unspecified)" assigned_category="label 0"
compound=CC(CC(=O)O)(CC(=O)O)C(=O)O assigned_category="label 0"
compound="CC1(C)C2CC(O)C1CCC2=O (stereo unspecified)" assigned_category="label 0"
compound=C=CCCC(=O)CC(=O)OCc1ccccc1 assigned_category="label 0"
compound=Oc1ccccc1/C=N/N1C(=S)N(C23CC4CC(CC(C4)C2)C3)C(=Nc2ccccc2)C1=Nc1ccccc1 assigned_category="label 0"
compound=Cc1ccccc1C(=O)NC(O)(C(F)(F)F)C(F)(F)F assigned_category="label 0"
compound="Cc1ccc(S(=O)(=O)C2CC(=O)N(c3ccc(F)c(Cl)c3)C2=O)cc1 (stereo unspecified)" assigned_category="label 0"
compound=CCOC(=O)CC(=O)Cc1ccccc1 assigned_category="label 0"
compound=NCCCc1nonc1C(=O)O assigned_category="label 0"
compound=O=C(O)Cc1ccc(O)cc1 assigned_category="label 0"
compound="CSC1=NC(C(N)=O)C(N)N1C (stereo unspecified)" assigned_category="label 0"
compound=CSc1ccc(Cl)cc1 assigned_category="label 0"
compound=Nc1c(Br)cc(Br)cc1C(=O)O assigned_category="label 0"
compound="CCCCCCC/C=C/C1CC(=O)OC1=O (stereo unspecified)" assigned_category="label 0"

----------
assay.comment: NCI Yeast Anticancer Drug Screen. Data for the rad50 strain (AID 155);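 further: 0% = growth of vehicle-only cultures of the same strain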
cond: S. cerevisiae rad50 strain growth inhibition; at 50.0 µM unless noted
The panel holds about 79,000 compounds, 15% with a hit somewhere; the sample as a whole holds those more often. Activity calls are given as the source filed them. Cut-off read from the data, not from the text of the source: active = growth inhibition above about 70%; inactive = the rest.
Possible outcomes: active, inactive

compound=CC(=O)Nc1ccc(NCC(=O)Nn2cnc3ccc(S(=O)(=O)Nc4ccc(NC(C)=O)cc4)cc3c2=O)cc1 assigned_category=inactive
compound="COC1OC(CO)C(O)C(O)C1OS(=O)(=O)c1ccc(C)cc1 (configuration not stated)" assigned_category=inactive
compound="COC1CCC(OS(C)(=O)=O)C(C)O1 (configuration not stated)" assigned_category=inactive
compound=C=CCOCn1cnc2c(N)ncnc21 assigned_category=inactive
compound=CC(=O)Cc1cc(-c2cc(CC(C)=O)nc(N)n2)nc(N)n1 assigned_category=inactive
compound="CN(C(=O)c1ccc([N+](=O)[O-])cc1)C(c1ccco1)P(=O)(c1ccccc1)c1ccccc1 (configuration not stated)" assigned_category=active
compound=COc1cccc(/C=C/C(C)=N/NC(N)=O)c1 assigned_category=inactive
